The measurements presented in this section are drawn from PubChem BioAssay AID2060495.

# Test system: 521955-158-R2-J5-PDC complex spheroid viability
# protocol text: Anticancer human tumor 521955-158-R2-J5-PDC patient-derived pancreatic carcinoma cell line growth inhibition [GQUAD]
# condition set: second compound 3.16 µM; first compound 3.16 µM; active compounds read low
attribute measured: viability, T/C (%)
API: value field is a number in %; no unit string.

Would you please look over these solved cases?
molecule	viability, T/C (%)
CC1COCCN1c1cc(C2(S(C)(=N)=O)CC2)nc(-c2ccnc3[nH]ccc23)n1 (stereo not drawn) + Cc1cnc(CNC(=O)c2c(=O)c3ccc(N4CCCN(C)CC4)nc3n3c2sc2ccccc23)cn1	13.6
Cc1cccc(N(C)C(=O)C2C(O)CCN2c2nc(C)cc(C(F)(F)F)c2C#N)c1 (stereo not drawn) + Cc1[nH]c2ccc(F)cc2c1-c1nc2c3cccnc3c3ncccc3c2[nH]1	132

May I ask what viability, T/C has been recorded for O=C(NO)c1cnc(N2CCN(S(=O)(=O)c3ccc4ccccc4c3)CC2)nc1 + CN(C)c1ccc(Nc2c3ccc(NC(=O)CCN4CCCC4)cc3nc3cc(NC(=O)CCN4CCCC4)ccc23)cc1 ?
0.28

* * *

# Test system: 521955-158-R2-J5-PDC complex spheroid viability
# protocol text: Anticancer human tumor 521955-158-R2-J5-PDC cell line growth inhibition [GQUAD];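 further: spheroids exposed to agents for one week before reading; 100% = DMSO vehicle control viability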
# condition set: second compound 0.1 µM; first compound 0.0316 µM; active compounds read low
viability, T/C: recorded values
API: value field is a number in %; no unit string.

Would you please look over these solved cases?
compound	experimental value
Cn1ncnc1[C@H]1c2n[nH]c(=O)c3cc(F)cc(c23)N[C@@H]1c1ccc(F)cc1 + CN(C)c1ccc(Nc2c3ccc(NC(=O)CCN4CCCC4)cc3nc3cc(NC(=O)CCN4CCCC4)ccc23)cc1	93.9
O=C(NO)c1cnc(N2CCN(S(=O)(=O)c3ccc4ccccc4c3)CC2)nc1 + CN(C)c1ccc(Nc2c3ccc(NC(=O)CCN4CCCC4)cc3nc3cc(NC(=O)CCN4CCCC4)ccc23)cc1	120
Cc1cccc(N(C)C(=O)C2C(O)CCN2c2nc(C)cc(C(F)(F)F)c2C#N)c1 (stereo not given) + Cc1cnc(CNC(=O)c2c(=O)c3ccc(N4CCCN(C)CC4)nc3n3c2sc2ccccc23)cn1	54.9
C=CC(=O)N1CCN(c2nc(=O)n(-c3c(C)ccnc3C(C)C)c3nc(-c4c(O)cccc4F)c(F)cc23)C(C)C1 (stereo not given) + Cc1[nH]c2ccc(F)cc2c1-c1nc2c3cccnc3c3ncccc3c2[nH]1	93

Proceeding to the next compound to report its viability, T/C.
For 521955-158-R2-J5-PDC complex spheroid viability, provide viability, T/C of CC[C@@]1(O)C(=O)OCc2c1cc1n(c2=O)Cc2cc3c(CN(C)C)c(O)ccc3nc2-1 + Cc1cnc(CNC(=O)c2c(=O)c3ccc(N4CCCN(C)CC4)nc3n3c2sc2ccccc23)cn1 please.
46.7

* * *

# Tested on: 521955-158-R2-J5-PDC complex spheroid viability
# protocol text: Anticancer human tumor 521955-158-R2-J5-PDC cell line growth inhibition [GQUAD];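 further: spheroids exposed to agents for one week before reading; 100% = DMSO vehicle control viability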
# condition set: second compound 0.1 µM; first compound 3.16 µM; active compounds read low
Mark YES only when viability, T/C stays strictly below 30%. Values equal to the cut-off are NO.

// known answers, use as guide
molecule	group
COc1ccc([C@@H](O)c2cc(-c3ncnc4cc(N5CCOCC5)ccc34)c(F)cc2Cl)nn1 + CN(C)c1ccc(Nc2c3ccc(NC(=O)CCN4CCCC4)cc3nc3cc(NC(=O)CCN4CCCC4)ccc23)cc1	NO
CCCS(=O)(=O)Nc1ccc(F)c(C(=O)c2c[nH]c3ncc(-c4ccc(Cl)cc4)cc23)c1F + Cc1cnc(CNC(=O)c2c(=O)c3ccc(N4CCCN(C)CC4)nc3n3c2sc2ccccc23)cn1	NO
CC1COCCN1c1cc(C2(S(C)(=N)=O)CC2)nc(-c2ccnc3[nH]ccc23)n1 (stereo unspecified) + Cc1cnc(CNC(=O)c2c(=O)c3ccc(N4CCCN(C)CC4)nc3n3c2sc2ccccc23)cn1	YES
O=C(c1cc(Cc2n[nH]c(=O)c3ccccc23)ccc1F)N1CCN(C(=O)C2CC2)CC1 + Cc1cnc(CNC(=O)c2c(=O)c3ccc(N4CCCN(C)CC4)nc3n3c2sc2ccccc23)cn1	NO
COc1cc(C2c3cc4c(cc3C(OC3OC5COC(C)OC5C(O)C3O)C3COC(=O)C23)OCO4)cc(OC)c1O (stereo unspecified) + CN(C)c1ccc(Nc2c3ccc(NC(=O)CCN4CCCC4)cc3nc3cc(NC(=O)CCN4CCCC4)ccc23)cc1	NO

Here is the next item to consider.
I wonder whether Nc1ccn(C2OC(CO)C(O)C2(F)F)c(=O)n1 (stereo unspecified) + CN(C)c1ccc(Nc2c3ccc(NC(=O)CCN4CCCC4)cc3nc3cc(NC(=O)CCN4CCCC4)ccc23)cc1 has viability, T/C below 30%. Can you tell?
YES

* * *

# Tested on: 521955-158-R2-J5-PDC complex spheroid viability
# protocol text: Anticancer human tumor 521955-158-R2-J5-PDC cell line growth inhibition [GQUAD];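 further: spheroids exposed to agents for one week before reading; 100% = DMSO vehicle control viability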
# condition set: second compound 1 µM; first compound 0.1 µM; active compounds read low
Mark criterion met only when viability, T/C stays strictly below 80%. Values equal to the cut-off are criterion not met.

// known answers, use as guide
compound	group
CC1COCCN1c1cc(-c2ccnn2C)c2ccnc(-c3ccn[nH]3)c2n1 (stereo unspecified) + CN(C)c1ccc(Nc2c3ccc(NC(=O)CCN4CCCC4)cc3nc3cc(NC(=O)CCN4CCCC4)ccc23)cc1	criterion met
CC1COCCN1c1cc(C2(S(C)(=N)=O)CC2)nc(-c2ccnc3[nH]ccc23)n1 (stereo unspecified) + Cc1[nH]c2ccc(F)cc2c1-c1nc2c3cccnc3c3ncccc3c2[nH]1	criterion not met
CC(C)(O)C1CCC(Nc2ccc3ncc(-c4cccc(C(F)(F)F)c4)n3n2)CC1 (stereo unspecified) + Cc1[nH]c2ccc(F)cc2c1-c1nc2c3cccnc3c3ncccc3c2[nH]1	criterion not met

I wonder whether O=c1[nH]cc(F)c(=O)[nH]1 + Cc1[nH]c2ccc(F)cc2c1-c1nc2c3cccnc3c3ncccc3c2[nH]1 has viability, T/C below 80%. Can you tell?
criterion not met

I wonder whether CC1COCCN1c1cc(C2(O)CC3CCC(C2)O3)c2cnn(-c3ccn[nH]3)c2n1 (stereo unspecified) + Cc1cnc(CNC(=O)c2c(=O)c3ccc(N4CCCN(C)CC4)nc3n3c2sc2ccccc23)cn1 has viability, T/C below 80%. Can you tell?
criterion met

I wonder whether CC(C)n1c(=O)n(C)c2cnc3cc(F)c(-c4ccc(OCCCN5CCCCC5)nc4)cc3c21 + Cc1cnc(CNC(=O)c2c(=O)c3ccc(N4CCCN(C)CC4)nc3n3c2sc2ccccc23)cn1 has viability, T/C below 80%. Can you tell?
criterion met

I wonder whether CC(=O)O[C@H]1C(=O)[C@@]2(C)[C@H]([C@H](OC(=O)c3ccccc3)[C@]3(O)C[C@H](OC(=O)[C@H](O)[C@@H](NC(=O)c4ccccc4)c4ccccc4)C(C)=C1C3(C)C)[C@]1(OC(C)=O)CO[C@@H]1C[C@@H]2O + Cc1[nH]c2ccc(F)cc2c1-c1nc2c3cccnc3c3ncccc3c2[nH]1 has viability, T/C below 80%. Can you tell?
criterion met

I wonder whether COc1ccc([C@@H](O)c2cc(-c3ncnc4cc(N5CCOCC5)ccc34)c(F)cc2Cl)nn1 + CN(C)c1ccc(Nc2c3ccc(NC(=O)CCN4CCCC4)cc3nc3cc(NC(=O)CCN4CCCC4)ccc23)cc1 has viability, T/C below 80%. Can you tell?
criterion not met

I wonder whether CC(C)(O)C1CCC(Nc2ccc3ncc(-c4cccc(C(F)(F)F)c4)n3n2)CC1 (stereo unspecified) + Cc1cnc(CNC(=O)c2c(=O)c3ccc(N4CCCN(C)CC4)nc3n3c2sc2ccccc23)cn1 has viability, T/C below 80%. Can you tell?
criterion met

I wonder whether COc1cccc2c1C(=O)c1c(O)c3c(c(O)c1C2=O)CC(O)(C(=O)CO)CC3OC1CC(N)C(O)C(C)O1 (stereo unspecified) + Cc1cnc(CNC(=O)c2c(=O)c3ccc(N4CCCN(C)CC4)nc3n3c2sc2ccccc23)cn1 has viability, T/C below 80%. Can you tell?
criterion met

I wonder whether C=CCn1c(=O)c2cnc(Nc3ccc(N4CCN(C)CC4)cc3)nc2n1-c1cccc(C(C)(C)O)n1 + Cc1[nH]c2ccc(F)cc2c1-c1nc2c3cccnc3c3ncccc3c2[nH]1 has viability, T/C below 80%. Can you tell?
criterion met

* * *

# System: 521955-158-R2-J5-PDC complex spheroid viability
# protocol text: Anticancer human tumor 521955-158-R2-J5-PDC cell line growth inhibition [GQUAD];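 further: spheroids exposed to agents for one week before reading; 100% = DMSO vehicle control viability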
# condition set: second compound 0.0316 µM; first compound 0.1 µM; active compounds read low
viability, T/C: recorded values
API: value field is a number in %; no unit string.

Would you please look over these solved cases?
molecule	reading unit	experimental value
COc1cccc2c1C(=O)c1c(O)c3c(c(O)c1C2=O)CC(O)(C(=O)CO)CC3OC1CC(N)C(O)C(C)O1 (stereo not given) + Cc1[nH]c2ccc(F)cc2c1-c1nc2c3cccnc3c3ncccc3c2[nH]1	%	60.3
C#Cc1c(F)ccc2cc(O)cc(-c3ncc4c(N5CC6CCC(C5)N6)nc(OCC56CCCN5CC(F)C6)nc4c3F)c12 (stereo not given) + CN(C)c1ccc(Nc2c3ccc(NC(=O)CCN4CCCC4)cc3nc3cc(NC(=O)CCN4CCCC4)ccc23)cc1	%	62.5
COc1cc(C2c3cc4c(cc3C(OC3OC5COC(C)OC5C(O)C3O)C3COC(=O)C23)OCO4)cc(OC)c1O (stereo not given) + CN(C)c1ccc(Nc2c3ccc(NC(=O)CCN4CCCC4)cc3nc3cc(NC(=O)CCN4CCCC4)ccc23)cc1	%	89.3
COc1ccc([C@@H](O)c2cc(-c3ncnc4cc(N5CCOCC5)ccc34)c(F)cc2Cl)nn1 + Cc1cnc(CNC(=O)c2c(=O)c3ccc(N4CCCN(C)CC4)nc3n3c2sc2ccccc23)cn1	%	62.5

Proceeding to the next molecule to report its viability, T/C.
May I ask what viability, T/C has been recorded for CC1COCCN1c1cc(-c2ccnn2C)c2ccnc(-c3ccn[nH]3)c2n1 (stereo not given) + Cc1cnc(CNC(=O)c2c(=O)c3ccc(N4CCCN(C)CC4)nc3n3c2sc2ccccc23)cn1 ?
10.8
